Reference source for all entries: patent US9040717B2

molecular target: hERG (Homo sapiens (Human)); assay: hERG whole cell patch clamp test; assay type: cell-based; conditions: human, hERG-transfected HEK293 cells, pH 7.4; whole cell patch clamp
Sequence (Q12809 whole entry): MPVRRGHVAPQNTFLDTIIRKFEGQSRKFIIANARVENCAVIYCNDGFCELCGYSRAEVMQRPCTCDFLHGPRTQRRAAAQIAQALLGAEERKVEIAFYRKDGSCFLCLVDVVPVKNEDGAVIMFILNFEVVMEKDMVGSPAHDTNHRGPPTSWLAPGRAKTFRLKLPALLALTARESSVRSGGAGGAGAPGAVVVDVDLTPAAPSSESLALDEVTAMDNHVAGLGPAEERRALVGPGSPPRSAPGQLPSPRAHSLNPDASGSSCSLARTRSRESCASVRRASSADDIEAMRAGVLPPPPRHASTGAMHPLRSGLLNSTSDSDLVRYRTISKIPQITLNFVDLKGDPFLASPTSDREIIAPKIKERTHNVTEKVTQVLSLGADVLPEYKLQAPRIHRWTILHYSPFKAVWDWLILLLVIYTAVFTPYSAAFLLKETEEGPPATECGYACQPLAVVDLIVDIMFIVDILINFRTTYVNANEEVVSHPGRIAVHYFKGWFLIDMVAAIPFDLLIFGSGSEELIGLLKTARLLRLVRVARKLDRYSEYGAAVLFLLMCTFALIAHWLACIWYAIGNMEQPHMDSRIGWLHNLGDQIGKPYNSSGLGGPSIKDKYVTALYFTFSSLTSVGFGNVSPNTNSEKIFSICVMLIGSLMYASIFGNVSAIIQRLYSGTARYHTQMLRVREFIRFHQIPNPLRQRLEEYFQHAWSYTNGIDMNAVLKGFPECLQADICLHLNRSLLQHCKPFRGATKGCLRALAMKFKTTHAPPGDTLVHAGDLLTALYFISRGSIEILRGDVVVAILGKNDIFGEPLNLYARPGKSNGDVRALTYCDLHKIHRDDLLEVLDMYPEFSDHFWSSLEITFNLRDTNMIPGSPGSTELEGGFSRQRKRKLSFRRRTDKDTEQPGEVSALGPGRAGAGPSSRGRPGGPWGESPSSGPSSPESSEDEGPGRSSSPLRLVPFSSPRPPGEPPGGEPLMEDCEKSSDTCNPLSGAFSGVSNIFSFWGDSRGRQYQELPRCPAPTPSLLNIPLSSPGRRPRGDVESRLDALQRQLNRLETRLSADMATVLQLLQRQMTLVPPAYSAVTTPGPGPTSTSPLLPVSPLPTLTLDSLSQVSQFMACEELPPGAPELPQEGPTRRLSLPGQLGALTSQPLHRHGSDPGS
endpointName: IC50 at 10 min

INPUT: Which IC50 at 10 min value belongs to NC(=O)Cn1cc(-c2cc(OCCC34CC5CC(CC(O)(C5)C3)C4)cc3c2-c2ccccc2[C@]3(O)C(F)(F)F)cn1 ?
OUTPUT: > 10 µM
